B1: 5KPH (parent)
chain: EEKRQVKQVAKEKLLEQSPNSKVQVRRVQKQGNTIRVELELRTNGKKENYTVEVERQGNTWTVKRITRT

# Variants of: B1
# assay.text: folding stability dG (cDNA display proteolysis); higher = more stable
# cond: PBS, room temperature
quantity.name: folding stability dG (kcal/mol)
Answer in kcal/mol, number only, no unit symbol.

Query :: Would you kindly share the measured folding stability dG for E55H ?
Result :: 3.65

Query :: Would you kindly share the measured folding stability dG for V37Y ?
Result :: 2.32

Query :: Would you kindly share the measured folding stability dG for R56N ?
Result :: 2.97

Query :: Would you kindly share the measured folding stability dG for G32E ?
Result :: 3.1

Query :: Would you kindly share the measured folding stability dG for Q17L ?
Result :: 4.54

Query :: Would you kindly share the measured folding stability dG for W61F ?
Result :: 3.74

Query :: Would you kindly share the measured folding stability dG for T62M ?
Result :: 3.97

Query :: Would you kindly share the measured folding stability dG for T60C ?
Result :: 3.33

Query :: Would you kindly share the measured folding stability dG for P19V ?
Result :: 2.82

Query :: Would you kindly share the measured folding stability dG for K7R ?
Result :: 3.85

Query :: Would you kindly share the measured folding stability dG for E16W ?
Result :: 2.86

Query :: Would you kindly share the measured folding stability dG for V54G ?
Result :: 1.44

Query :: Would you kindly share the measured folding stability dG for T67I ?
Result :: 4.09

Query :: Would you kindly share the measured folding stability dG for T69C ?
Result :: 3.56

Query :: Would you kindly share the measured folding stability dG for V23L ?
Result :: 3.07

Query :: Would you kindly share the measured folding stability dG for L14M ?
Result :: 4.02

Query :: Would you kindly share the measured folding stability dG for N20E ?
Result :: 3.53

Query :: Would you kindly share the measured folding stability dG for G58A ?
Result :: 3.33

Query :: Would you kindly share the measured folding stability dG for V54D ?
Result :: -0.632

Query :: Would you kindly share the measured folding stability dG for R56K ?
Result :: 4.11

Query :: Would you kindly share the measured folding stability dG for V54W ?
Result :: 2.75

Query :: Would you kindly share the measured folding stability dG for K30P ?
Result :: 3.79

Query :: Would you kindly share the measured folding stability dG for Q24R ?
Result :: 4.41

Query :: Would you kindly share the measured folding stability dG for E1M ?
Result :: 3.33

Query :: Would you kindly share the measured folding stability dG for E2T ?
Result :: 3.74

Query :: Would you kindly share the measured folding stability dG for E16F ?
Result :: 2.82

Query :: Would you kindly share the measured folding stability dG for K11S ?
Result :: 3.8

Query :: Would you kindly share the measured folding stability dG for E2I ?
Result :: 3.93

Query :: Would you kindly share the measured folding stability dG for L41K ?
Result :: 2.73

Query :: Would you kindly share the measured folding stability dG for T69E ?
Result :: 3.82

Query :: Would you kindly share the measured folding stability dG for V25E ?
Result :: 1.74

Query :: Would you kindly share the measured folding stability dG for I35Q ?
Result :: 2.79

Query :: Would you kindly share the measured folding stability dG for R4K ?
Result :: 3.9

Query :: Would you kindly share the measured folding stability dG for N44K ?
Result :: 3.77

Query :: Would you kindly share the measured folding stability dG for T43V ?
Result :: 3.65

Query :: Would you kindly share the measured folding stability dG for S21K ?
Result :: 2.16

Query :: Would you kindly share the measured folding stability dG for N20I ?
Result :: 3.03

Query :: Would you kindly share the measured folding stability dG for S21E ?
Result :: 1.96

Query :: Would you kindly share the measured folding stability dG for L15E ?
Result :: 3.1

Query :: Would you kindly share the measured folding stability dG for N49P ?
Result :: 2.7

Query :: Would you kindly share the measured folding stability dG for T34L ?
Result :: 3.96

Query :: Would you kindly share the measured folding stability dG for N49A ?
Result :: 3.73

Query :: Would you kindly share the measured folding stability dG for N49T ?
Result :: 4.14

Query :: Would you kindly share the measured folding stability dG for N44W ?
Result :: 3.67

Query :: Would you kindly share the measured folding stability dG for T51M ?
Result :: 3.95

Query :: Would you kindly share the measured folding stability dG for Q57L ?
Result :: 3.96

Query :: Would you kindly share the measured folding stability dG for W61G ?
Result :: 1.39

Query :: Would you kindly share the measured folding stability dG for S18R ?
Result :: 3.82

Query :: Would you kindly share the measured folding stability dG for R65C ?
Result :: 3.44

Query :: Would you kindly share the measured folding stability dG for R42T ?
Result :: 4.4

Query :: Would you kindly share the measured folding stability dG for T51D ?
Result :: 3.01

Query :: Would you kindly share the measured folding stability dG for K7H ?
Result :: 3.57

Query :: Would you kindly share the measured folding stability dG for E12S ?
Result :: 3.79

Query :: Would you kindly share the measured folding stability dG for A10W ?
Result :: 2.27

Query :: Would you kindly share the measured folding stability dG for W61M ?
Result :: 3.21

Query :: Would you kindly share the measured folding stability dG for V9E ?
Result :: 2.33

Query :: Would you kindly share the measured folding stability dG for T34N ?
Result :: 3.44

Query :: Would you kindly share the measured folding stability dG for E16T ?
Result :: 3.34

Query :: Would you kindly share the measured folding stability dG for W61C ?
Result :: 2.68

Query :: Would you kindly share the measured folding stability dG for G45A ?
Result :: 3.5

Query :: Would you kindly share the measured folding stability dG for Q17T ?
Result :: 3.83

Query :: Would you kindly share the measured folding stability dG for E53W ?
Result :: 4.23

Query :: Would you kindly share the measured folding stability dG for V6I ?
Result :: 4.24

Query :: Would you kindly share the measured folding stability dG for Q31E ?
Result :: 4.05

Query :: Would you kindly share the measured folding stability dG for N33T ?
Result :: 3.82

Query :: Would you kindly share the measured folding stability dG for V54E ?
Result :: 1.33

Query :: Would you kindly share the measured folding stability dG for V37I ?
Result :: 3.5

Query :: Would you kindly share the measured folding stability dG for Q17V ?
Result :: 3.91

Query :: Would you kindly share the measured folding stability dG for R4A ?
Result :: 3.86

Query :: Would you kindly share the measured folding stability dG for E12P ?
Result :: 1.8

Query :: Would you kindly share the measured folding stability dG for E38N ?
Result :: 3.51

Query :: Would you kindly share the measured folding stability dG for E12V ?
Result :: 3.21

Query :: Would you kindly share the measured folding stability dG for V63T ?
Result :: 2.51

Query :: Would you kindly share the measured folding stability dG for V25S ?
Result :: 1.84

Query :: Would you kindly share the measured folding stability dG for G32F ?
Result :: 3.33

Query :: Would you kindly share the measured folding stability dG for T69Q ?
Result :: 3.9

Query :: Would you kindly share the measured folding stability dG for I66S ?
Result :: 2.1

Query :: Would you kindly share the measured folding stability dG for T60L ?
Result :: 3.63

Query :: Would you kindly share the measured folding stability dG for G58N ?
Result :: 3.7

Query :: Would you kindly share the measured folding stability dG for N44V ?
Result :: 3.47

Query :: Would you kindly share the measured folding stability dG for G45M ?
Result :: 3.52

Query :: Would you kindly share the measured folding stability dG for S18D ?
Result :: 3.23

Query :: Would you kindly share the measured folding stability dG for V54A ?
Result :: 2.62

Query :: Would you kindly share the measured folding stability dG for Q29P ?
Result :: 1.02

Query :: Would you kindly share the measured folding stability dG for K7N ?
Result :: 3.39

Query :: Would you kindly share the measured folding stability dG for E53K ?
Result :: 2.54

Query :: Would you kindly share the measured folding stability dG for K13Q ?
Result :: 3.24

Query :: Would you kindly share the measured folding stability dG for K30I ?
Result :: 4.35

Query :: Would you kindly share the measured folding stability dG for N20A ?
Result :: 3.77

Query :: Would you kindly share the measured folding stability dG for K64H ?
Result :: 3.25

Query :: Would you kindly share the measured folding stability dG for E48T ?
Result :: 3.65

Entry source: the MegaScale stability set (Tsuboyama et al. 2023)
